System: KRAS PDC multicell spheroid viability
Assay: Anticancer human tumor 825966-067-R-J1-PDC patient-derived colon carcinoma cell line growth inhibition [KRAS2]; active = viability on the fitted dose curve at most 10% of control; inactive = the rest
Settings: second compound 1 µM; first compound 10 µM
Permitted responses: active, inactive

O=C(c1cc(Cc2n[nH]c(=O)c3ccccc23)ccc1F)N1CCN(C(=O)C2CC2)CC1 + CNCc1ccccc1-c1csc(C(C)Nc2nc(C)nc3cc(OC)c(OC)cc23)c1
inactive
CC(C)NCC(C(=O)N1CCN(c2ncnc3c2C(C)CC3O)CC1)c1ccc(Cl)cc1 (stereo unspecified) + C=CC(=O)N1CCN(c2nc(OCC3CCCN3C)nc3c2CCN(c2cccc4cccc(C)c24)C3)CC1CC#N
active
COc1cc2nccc(Oc3ccc(NC(=O)C4(C(=O)Nc5ccc(F)cc5)CC4)cc3)c2cc1OC + COc1cc2nc(C)nc(NC(C)c3cc(N)cc(C(F)(F)F)c3)c2cc1OC1CCOC1
active
Cn1nccc1Nc1nccc(-c2cc3c(s2)C(C)(C)N(CCN2CCOCC2)C3=O)n1 + CNCc1ccccc1-c1csc(C(C)Nc2nc(C)nc3cc(OC)c(OC)cc23)c1
inactive
O=C(c1cc(Cc2n[nH]c(=O)c3ccccc23)ccc1F)N1CCN(C(=O)C2CC2)CC1 + CC1OCC2(CCN(c3cnc(Sc4ccnc(N)c4Cl)c(N)n3)CC2)C1N
inactive

Now take the following molecule into account.
Enquiry: Fill in: this test's call for CC(C)NCC(C(=O)N1CCN(c2ncnc3c2C(C)CC3O)CC1)c1ccc(Cl)cc1 (stereo unspecified) + CC1OCC2(CCN(c3cnc(Sc4ccnc(N)c4Cl)c(N)n3)CC2)C1N is ___
Return: inactive

* * *

Tested on: KRAS PDC multicell spheroid viability
Experiment: Anticancer human tumor 825966-067-R-J1-PDC cell line growth inhibition [KRAS2]; active = viability on the fitted dose curve at most 10% of control; inactive = the rest;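 note: spheroids exposed to compounds for 7 days; 100% = DMSO vehicle control viability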
Details: second compound 0.0316 µM; first compound 3.16 µM
# valid calls are Y for active, N for inactive; nothing else

Below are worked cases with known answers.
CC1COCCN1c1cc(-c2ccnn2C)c2ccnc(-c3ccn[nH]3)c2n1 (stereo not given) + C=CC(=O)N1CCN(c2nc(OCC3CCCN3C)nc3c2CCN(c2cccc4cccc(C)c24)C3)CC1CC#N
N
COC(=O)c1ccc2c(C(=Nc3ccc(N(C)C(=O)CN4CCN(C)CC4)cc3)c3ccccc3)c(O)[nH]c2c1 + C=CC(=O)N1CCN(c2nc(OCC3CCCN3C)nc3c2CCN(c2cccc4cccc(C)c24)C3)CC1CC#N
Y
CC1OCC2(CCN(c3cnc(Sc4ccnc(N)c4Cl)c(N)n3)CC2)C1N (stereo not given) + C=CC(=O)N1CCN(c2nc(OCC3CCCN3C)nc3c2CCN(c2cccc4cccc(C)c24)C3)CC1CC#N
N
CC(C)NCC(C(=O)N1CCN(c2ncnc3c2C(C)CC3O)CC1)c1ccc(Cl)cc1 (stereo not given) + C=CC(=O)N1CCN(c2nc(OCC3CCCN3C)nc3c2CCN(c2cccc4cccc(C)c24)C3)CC1CC#N
N

Enquiry: State the result this test recorded for CC(=O)OC12COC1CC(O)C1(C)C(=O)C(O)C3=C(C)C(OC(=O)C(O)C(NC(=O)OC(C)(C)C)c4ccccc4)CC(O)(C(OC(=O)c4ccccc4)C21)C3(C)C (stereo not given) + C=CC(=O)N1CCN(c2nc(OCC3CCCN3C)nc3c2CCN(c2cccc4cccc(C)c24)C3)CC1CC#N .
Return: N

* * *

Test system: KRAS PDC multicell spheroid viability
Assay: Anticancer human tumor 825966-067-R-J1-PDC cell line growth inhibition [KRAS2];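 note: spheroids exposed to compounds for 7 days; 100% = DMSO vehicle control viability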
Settings: second compound 0.1 µM; first compound 0.00316 µM; stronger effect = lower value
measured_endpoint: viability, T/C

Study these solved cases before continuing.
Cn1ncnc1[C@H]1c2n[nH]c(=O)c3cc(F)cc(c23)N[C@@H]1c1ccc(F)cc1 + CC1OCC2(CCN(c3cnc(Sc4ccnc(N)c4Cl)c(N)n3)CC2)C1N
85.6%
CC(=O)Nc1cccc(-n2c(=O)n(C3CC3)c(=O)c3c(Nc4ccc(I)cc4F)n(C)c(=O)c(C)c32)c1 + CNCc1ccccc1-c1csc(C(C)Nc2nc(C)nc3cc(OC)c(OC)cc23)c1
107%

Form: compound = CC(C)n1nc(-c2ccc3oc(N)nc3c2)c2c(N)ncnc21 + COc1cc2nc(C)nc(NC(C)c3cc(N)cc(C(F)(F)F)c3)c2cc1OC1CCOC1 ; viability, T/C = 125%

What the record says about CCN1CCN(Cc2ccc(Nc3ncc(F)c(-c4cc(F)c5nc(C)n(C(C)C)c5c4)n3)nc2)CC1 + C=CC(=O)N1CCN(c2nc(=O)n(-c3c(C)ccnc3C(C)C)c3nc(-c4c(O)cccc4F)c(F)cc23)C(C)C1 : viability, T/C is 90%

Reported viability, T/C ( CC(C)n1nc(-c2ccc3oc(N)nc3c2)c2c(N)ncnc21 + CC1OCC2(CCN(c3cnc(Sc4ccnc(N)c4Cl)c(N)n3)CC2)C1N ) = 133%

Consider CCN1CCN(Cc2ccc(Nc3ncc(F)c(-c4cc(F)c5nc(C)n(C(C)C)c5c4)n3)nc2)CC1 + C=CC(=O)N1CCN(c2nc(OCC3CCCN3C)nc3c2CCN(c2cccc4cccc(C)c24)C3)CC1CC#N . Its measured viability, T/C is 97.1%
